System: human lung cancer cell A549
EXPERIMENTAL PROTOCOL: Anti-tumor activity assay (MTT), A549
Format: cell-based
TEST SETTINGS: final concentration 0.1 μg/mL, 48 hrs, samples stored at −20° C. for one week, read-out: Inhibition rate
MEASURED ATTRIBUTE: inhibition at 0.1 µg/mL (%)
Please state the figure in %; there is no need to write the unit.

Enquiry: What does the record list as inhibition at 0.1 µg/mL for Cc1[nH]c(/C=C2\C(=O)Nc3ccc(F)cc32)c(C)c1C(=O)NCC1CCCCN1 (stereo not drawn) [Compound 3] ?
Return: 11.9

Enquiry: What does the record list as inhibition at 0.1 µg/mL for CCN1CCCC1CNC(=O)c1c(C)[nH]c(/C=C2\C(=O)Nc3ccc(F)cc32)c1C (stereo not drawn) [Compound 1] ?
Return: 18.6

Here is another compound to look at.
Enquiry: What does the record list as inhibition at 0.1 µg/mL for CCN(CC)CCNC(=O)c1c(C)[nH]c(/C=C2\C(=O)Nc3ccc(F)cc32)c1C [Sunitinib, reference compound] ?
Return: 7.29
